- ASSAYED_SYSTEM: 5'-AMP-activated protein kinase catalytic subunit alpha-1 (Homo sapiens) (UniProt Q13131)
- Sequence (Q13131 whole entry, looked up): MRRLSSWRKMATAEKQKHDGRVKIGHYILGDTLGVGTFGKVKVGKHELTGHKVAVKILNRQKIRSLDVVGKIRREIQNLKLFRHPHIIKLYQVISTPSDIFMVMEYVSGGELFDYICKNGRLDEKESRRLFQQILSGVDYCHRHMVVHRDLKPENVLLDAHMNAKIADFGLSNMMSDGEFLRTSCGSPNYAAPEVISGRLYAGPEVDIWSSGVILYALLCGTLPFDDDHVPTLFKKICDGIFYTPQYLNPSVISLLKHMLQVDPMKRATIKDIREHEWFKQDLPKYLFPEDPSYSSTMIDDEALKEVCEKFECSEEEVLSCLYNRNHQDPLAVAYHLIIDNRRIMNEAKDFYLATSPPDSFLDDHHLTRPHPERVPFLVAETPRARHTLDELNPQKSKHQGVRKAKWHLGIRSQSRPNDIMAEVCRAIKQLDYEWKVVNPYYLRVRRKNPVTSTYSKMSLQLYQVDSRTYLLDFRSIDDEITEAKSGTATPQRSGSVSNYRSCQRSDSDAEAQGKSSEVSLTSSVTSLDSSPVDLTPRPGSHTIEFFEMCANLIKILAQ
- EXPERIMENTAL_PROTOCOL: Activation of AMPKalpha in human LS 174T cells assessed as phosphorylation at T172 at 1 to 3 uM by Western blotting analysis relative to urea-3,4-diCl
- Format: cell-based
- CONDITION_SET: LS174T
OUTCOME_MEASURE: fold change (FC)
# output: bare number, no unit

Recorded results for 8 compounds are shown here.
{"SMILES_STR": "O=C(Nc1ccc(SC(F)(F)F)cc1)Nc1ccc(F)c(F)c1", "fold change (FC)": 1.11}
{"SMILES_STR": "O=C(Nc1ccc(OC(F)(F)F)cc1)Nc1cc(F)cc(F)c1", "fold change (FC)": 1.44}
{"SMILES_STR": "O=C(Nc1ccc(SC(F)(F)F)cc1)Nc1cc(F)c(F)cc1F", "fold change (FC)": 1.21}
{"SMILES_STR": "O=C(Nc1ccc(SC(F)(F)F)cc1)Nc1cc(F)c(F)c(F)c1F", "fold change (FC)": 2.48}
{"SMILES_STR": "O=C(Nc1cc(Cl)cc(Cl)c1)Nc1cccc(SC(F)(F)F)c1", "fold change (FC)": 1.94}
{"SMILES_STR": "O=C(Nc1ccc(OC(F)(F)F)cc1)Nc1cc(Cl)c(Cl)c(Cl)c1", "fold change (FC)": 0.96}
{"SMILES_STR": "O=C(Nc1ccc(SC(F)(F)F)cc1)Nc1cc(F)c(F)c(F)c1", "fold change (FC)": 2.02}
{"SMILES_STR": "O=C(Nc1ccc(SC(F)(F)F)cc1)Nc1c(F)c(F)c(C(=O)O)c(F)c1F", "fold change (FC)": 0.86}

Per the record, `O=C(Nc1ccc(Cl)cc1)Nc1ccc(SC(F)(F)F)cc1` has fold change (FC) of 0.71

Noted for `O=C(Nc1ccc(SC(F)(F)F)cc1)Nc1ccc(F)c(Cl)c1` : its fold change (FC) reads 1.05

Recorded result, `N#Cc1ccc(NC(=O)Nc2ccc(SC(F)(F)F)cc2)cc1` , fold change (FC): 1.05

----------
- ASSAYED_SYSTEM: 5'-AMP-activated protein kinase catalytic subunit alpha-1 (Homo sapiens)
- EXPERIMENTAL_PROTOCOL: Activation of AMPKalpha in human LS 174T cells assessed as phosphorylation at T172 at 1 to 3 uM by Western blotting analysis relative to urea-3,4-diCl
- Assay type: cell-based
- CONDITION_SET: LS174T
Label y when fold change (FC) is strictly below 2; otherwise label n.

{"SMILES_STR": "O=C(Nc1ccc(SC(F)(F)F)cc1)Nc1cccc(F)c1", "CLASS_NAME": "y"}
{"SMILES_STR": "O=C(Nc1cc(F)cc(F)c1)Nc1cccc(SC(F)(F)F)c1", "CLASS_NAME": "y"}
{"SMILES_STR": "N#Cc1cc(NC(=O)Nc2ccc(SC(F)(F)F)cc2)ccc1F", "CLASS_NAME": "y"}
{"SMILES_STR": "O=C(Nc1ccc(OC(F)(F)F)cc1)Nc1cc(Cl)cc(Cl)c1", "CLASS_NAME": "y"}
{"SMILES_STR": "O=C(Nc1ccc(SC(F)(F)F)cc1)Nc1cc(Cl)c(Cl)c(Cl)c1", "CLASS_NAME": "n"}
{"SMILES_STR": "O=C(Nc1ccc(OC(F)(F)F)cc1)Nc1ccc(C(F)(F)F)cc1", "CLASS_NAME": "n"}
{"SMILES_STR": "O=C(Nc1ccc(SC(F)(F)F)cc1)Nc1ccc(Cl)c(C(F)(F)F)c1", "CLASS_NAME": "y"}
{"SMILES_STR": "O=C(Nc1ccc(SC(F)(F)F)cc1)Nc1cc(Cl)cc(Cl)c1", "CLASS_NAME": "y"}

is_below(fold change (FC), 2) for `O=C(Nc1ccc(SC(F)(F)F)cc1)Nc1cccc(Cl)c1F` ? y

Consider `O=C(Nc1ccc(SC(F)(F)F)cc1)Nc1ccc(F)c(C(F)(F)F)c1` . Does its fold change (FC) lie strictly below 2? y

Check if fold change (FC) falls below 2 for `O=C(Nc1ccc(OC(F)(F)F)cc1)Nc1ccc(SC(F)(F)F)c(Cl)c1` . n

----------
Below, each entry is listed with its recorded fold change (FC).
- ASSAYED_SYSTEM: 5'-AMP-activated protein kinase catalytic subunit alpha-1 (Homo sapiens)
- EXPERIMENTAL_PROTOCOL: Activation of AMPKalpha in human LS 174T cells assessed as phosphorylation at T172 at 1 to 3 uM by Western blotting analysis relative to urea-3,4-diCl
- Assay type: cell-based
- CONDITION_SET: LS174T

Value of fold change (FC) reported for the compound `O=C(Nc1ccc(C(F)(F)F)cc1)Nc1cccc(SC(F)(F)F)c1` is 2.16

Note to self: fold change (FC) recorded for `O=C(Nc1ccc(SC(F)(F)F)cc1)Nc1cc(F)cc(F)c1` was 1.14

The compound listed as `O=C(Nc1ccc(SC(F)(F)F)cc1)Nc1ccc(C(F)(F)F)cc1` shows fold change (FC) equal to 1.19

----------
- ASSAYED_SYSTEM: 5'-AMP-activated protein kinase catalytic subunit alpha-1 (Homo sapiens) (UniProt Q13131)
- EXPERIMENTAL_PROTOCOL: Activation of AMPKalpha in human LS 174T cells assessed as phosphorylation at T172 at 1 to 3 uM by Western blotting analysis relative to urea-3,4-diCl
- Assay type: cell-based
- CONDITION_SET: LS174T
OUTCOME_MEASURE: fold change (FC)
Reply with just the number.

These recorded examples may help you get a feel for the data.
{"SMILES_STR": "O=C(Nc1ccc(SC(F)(F)F)cc1)Nc1ccc(SC(F)(F)F)c(Cl)c1", "ASSAYED_SYSTEM": "5'-AMP-activated protein kinase catalytic subunit alpha-1 (Homo sapiens) (UniProt Q13131)", "OUTCOME_MEASURE": "fold change (FC)", "NUMERIC_RESULT": 0.93}
{"SMILES_STR": "O=C(Nc1ccc(C(F)(F)F)cc1)Nc1cc(F)c(F)c(F)c1", "ASSAYED_SYSTEM": "5'-AMP-activated protein kinase catalytic subunit alpha-1 (Homo sapiens) (UniProt Q13131)", "OUTCOME_MEASURE": "fold change (FC)", "NUMERIC_RESULT": 4}
{"SMILES_STR": "O=C(Nc1ccc(OC(F)(F)F)cc1)Nc1cc(F)c(F)c(F)c1", "ASSAYED_SYSTEM": "5'-AMP-activated protein kinase catalytic subunit alpha-1 (Homo sapiens) (UniProt Q13131)", "OUTCOME_MEASURE": "fold change (FC)", "NUMERIC_RESULT": 0.99}

The compound identified as `O=C(Nc1ccc(OC(F)(F)F)cc1)Nc1cc(F)c(F)c(F)c1F` registered its fold change (FC) at 0.8
